- Tested on: CAKI-1
- PROTOCOL DESCRIPTION: NCI tumour cell line growth inhibition, 48 h
Activity calls are given as the source filed them. Cut-off read from the data, not from the text of the source: active = GI50 up to about 1.1 µM and inactive = higher.
The following compounds are listed with their measured GI50 values.

Observe how each entry below is paired with its result.
COMPOUND: CC(C)/C(Cl)=N/OC(NC(=O)Nc1ccc(Cl)c(Cl)c1)(C(F)(F)F)C(F)(F)F
MEASURED ENDPOINT: GI50
VAL: 2.16 µM (inactive)
--
COMPOUND: CCOC(=O)C(C(C)=O)C1CC=CC1 (centres undefined)
MEASURED ENDPOINT: GI50
VAL: > 100 µM (inactive)

// next item, GI50 requested
Which GI50 value belongs to Cc1ccnc2c1ccc1nc3ccccc3n12 ? 11.4 µM (inactive)

* * *

- System: SW-620
- PROTOCOL DESCRIPTION: NCI tumour cell line growth inhibition, 48 h
Calls of active or inactive are those of the source. Cut-off read from the data, not from the text of the source: active = GI50 up to about 1.1 µM and inactive = higher.
MEASURED ENDPOINT: GI50

Observe how each entry below is paired with its result.
COMPOUND: Cc1c(C(=O)C/C(=N/NC(=O)C[N+](C)(C)C)C(=O)Nc2ccc(Cl)cc2)[n+]([O-])c2ccccc2[n+]1[O-]
GI50: > 100 µM (inactive)
--
COMPOUND: CC(C)(Br)C(Br)CCC1(C(Br)CBr)CO1 (stereo not drawn)
GI50: > 10 µM (inactive)

// next item, GI50 requested
Which GI50 value belongs to COc1ccc(NC=O)c(C(O)CCNC(C)=O)c1 (stereo not drawn) ? > 100 µM (inactive)

* * *

- System: 786-0
- PROTOCOL DESCRIPTION: NCI tumour cell line growth inhibition, 48 h
Activity calls are given as the source filed them. Cut-off read from the data, not from the text of the source: active = GI50 up to about 1.1 µM and inactive = higher.
MEASURED ENDPOINT: GI50

Observe how each entry below is paired with its result.
COMPOUND: O=C1Nc2ccccc2/C1=N/NC(=S)Nc1ccc([N+](=O)[O-])cc1
TEST SYSTEM: 786-0
MEASURED ENDPOINT: GI50
VAL: 4.81 µM (inactive)
//
COMPOUND: O=c1oc2c(Cl)cc(Cl)cc2cc1-c1cn2c(n1)sc1ccccc12
TEST SYSTEM: 786-0
MEASURED ENDPOINT: GI50
VAL: 32.9 µM (inactive)

// next item, GI50 requested
Which GI50 value belongs to CCC1CC2C(=O)N(c3ccccc3)C(=O)C2c2[nH]c3ccccc3c21 (stereo not drawn) ? 18.9 µM (inactive)

* * *

- Tested on: EKVX
- PROTOCOL DESCRIPTION: NCI tumour cell line growth inhibition, 48 h
Activity calls are given as the source filed them. Cut-off read from the data, not from the text of the source: active = GI50 up to about 1.1 µM and inactive = higher.
MEASURED ENDPOINT: GI50

Observe how each entry below is paired with its result.
COMPOUND: COc1ccc(N[S+]([O-])c2ccc(Cl)cc2)cc1 (stereo unspecified)
TEST SYSTEM: EKVX
MEASURED ENDPOINT: GI50
VAL: 55.2 µM (inactive)
--
COMPOUND: NC12CCC(CC1=O)C2 (stereo unspecified)
TEST SYSTEM: EKVX
MEASURED ENDPOINT: GI50
VAL: > 100 µM (inactive)
--
COMPOUND: CC(=O)OCC1OC(n2c(-c3ccccc3)cc(-c3ccco3)c(C#N)c2=O)C(OC(C)=O)C(OC(C)=O)C1OC(C)=O (stereo unspecified)
TEST SYSTEM: EKVX
MEASURED ENDPOINT: GI50
VAL: > 100 µM (inactive)
--
COMPOUND: CC#CC(O)(C(=O)OCCCN(C)C)C1CCCCC1 (stereo unspecified)
TEST SYSTEM: EKVX
MEASURED ENDPOINT: GI50
VAL: > 100 µM (inactive)
--
COMPOUND: CC(C)(C)C1CCC2c3c([nH]c4ccccc34)C3C(=O)N(c4ccc([N+](=O)[O-])cc4)C(=O)C3C2C1 (stereo unspecified)
TEST SYSTEM: EKVX
MEASURED ENDPOINT: GI50
VAL: 25.3 µM (inactive)

Which GI50 value belongs to Cc1cc(Cl)ccc1NC(=O)C(=O)C(C(=O)c1ccc2ccccc2c1)C1OC(=O)c2ccccc21 (stereo unspecified) ? 29.2 µM (inactive)

* * *

The following molecules are listed with their measured GI50 values.
- Test system: DU-145
- PROTOCOL DESCRIPTION: NCI tumour cell line growth inhibition, 48 h
Calls of active or inactive are those of the source. Cut-off read from the data, not from the text of the source: active = GI50 up to about 1.1 µM and inactive = higher.

Observe how each entry below is paired with its result.
MOLECULE: COc1ccc2[nH]c(C(=O)N3CC(CCl)c4ccc([N+](=O)[O-])cc43)cc2c1 (configuration not stated)
TEST SYSTEM: DU-145
GI50: > 100 µM (inactive)
--
MOLECULE: COc1ccc(/C=C(\C(=O)OCC(C)C)c2ccc(OC)c(OC)c2)cc1OC
TEST SYSTEM: DU-145
GI50: > 100 µM (inactive)
--
MOLECULE: COc1cc(S(=O)(=O)Nc2ccc(-c3csc(N4C(=O)CSC4c4ccccc4O)n3)cc2)ccc1Cl (configuration not stated)
TEST SYSTEM: DU-145
GI50: 35.4 µM (inactive)

// next item, GI50 requested
Which GI50 value belongs to COc1cc2c(cc1OC)C(c1ccccc1CCCCl)=NCC2 ? > 100 µM (inactive)

* * *

- System: SN12C
- PROTOCOL DESCRIPTION: NCI tumour cell line growth inhibition, 48 h
The source made the active and inactive calls. No stated cut-off is given here; in the data, active = GI50 up to about 1.1 µM and inactive = higher.
MEASURED ENDPOINT: GI50

Observe how each entry below is paired with its result.
MOLECULE: COC(=O)[C@@H]1CN(C(=O)Cc2ccccc2)C(=O)N1
MEASURED ENDPOINT: GI50
VAL: > 100 µM (inactive)

MOLECULE: CC1CCC2(O)C3(C)CC4(O)OC2(C1O)C1(O)C3(O)C(OC(=O)c2ccc[nH]2)C(O)(C(C)C)C41C (centres undefined)
MEASURED ENDPOINT: GI50
VAL: > 100 µM (inactive)

MOLECULE: CCOC(=O)C1C2CCC(C2)C1(CCl)C(=O)OCC (centres undefined)
MEASURED ENDPOINT: GI50
VAL: > 100 µM (inactive)

MOLECULE: COCN1C(=O)[C@@H]2CCCN2C(=O)c2ccc(Cl)cc21
MEASURED ENDPOINT: GI50
VAL: > 100 µM (inactive)

Recall the recorded GI50 for CN(C)c1ccc(C(C#N)N2CCCN(C(C#N)c3ccc(N(C)C)cc3)C2c2ccc(N(C)C)cc2)cc1 (centres undefined) with SN12C and state it. > 100 µM (inactive)

* * *

- Test system: BT-549
- PROTOCOL DESCRIPTION: NCI tumour cell line growth inhibition, 48 h
Activity calls are given as the source filed them. Cut-off read from the data, not from the text of the source: active = GI50 up to about 1.1 µM and inactive = higher.
MEASURED ENDPOINT: GI50

MOLECULE: COC(=O)CN1Cc2cc(C)cc(c2O)CN(CC(=O)OC)Cc2cc(C)cc(c2O)CN(CC(=O)OC)Cc2cc(C)cc(c2O)CN(CC(=O)OC)Cc2cc(C)cc(c2O)C1
GI50: 24.8 µM (inactive)

MOLECULE: CC1=NN(C(=O)CC(=O)Nc2cccc(Cl)c2)C(=O)C1/N=N\c1ccc(S(=O)(=O)c2ccc(/N=N/C3C(=O)N(C(=O)CC(=O)Nc4cccc(Cl)c4)N=C3C)cc2)cc1 (stereo unspecified)
GI50: > 100 µM (inactive)

MOLECULE: O=C(Oc1ccccc1)N1c2ccccc2[C@@]23O[C@]24CCC[C@H]3C#C/C=C\C#C[C@H]14
GI50: 12.9 µM (inactive)

Which GI50 value belongs to O=C1Nc2ccccc2/C1=N/NC(=S)Nc1ccc([N+](=O)[O-])cc1 ? 14.4 µM (inactive)

Another molecule to look at: CCOC(=O)NN(C(=O)OCC)C(C(=O)c1ccccc1)N(NC(=O)OCC)C(=O)OCC > 100 µM (inactive)

Another molecule to look at: O=C1CN(c2cccc(Cl)c2)C(=O)CN1CCN1CC(=O)N(c2cccc(Cl)c2)CC1=O > 100 µM (inactive)

Another molecule to look at: COc1ccc(/N=N/c2c(C)c(C#N)c(=S)n(C3OC(CO)C(O)C(O)C3O)c2-c2ccccc2)cc1 (stereo unspecified) 38 µM (inactive)

Another molecule to look at: COc1cc(/C=C2\S/C(=N/Nc3nc(-c4ccc(Br)cc4)cs3)NC2=O)cc(OC)c1OC 7.82 µM (inactive)

Another molecule to look at: O=c1[nH]c(Nc2nc3ccccc3[nH]2)nc2c1CCC2 35.5 µM (inactive)

Another molecule to look at: O=C(O)CCO/N=C1/C(=C2/C(=O)Nc3ccccc32)Nc2ccccc21 24.5 µM (inactive)

Another molecule to look at: CCc1nnc2sc(-c3ccc(-c4ccccc4[N+](=O)[O-])o3)nn12 36.6 µM (inactive)

* * *

- System: SF-268
- PROTOCOL DESCRIPTION: NCI tumour cell line growth inhibition, 48 h
Activity calls are given as the source filed them. Rule as the data show it: active = GI50 up to about 1.1 µM and inactive = higher.
Assign a class; possible classes are 1 (yes) for active, 0 (no) for inactive

The following molecules have reported results that may help.
QUERY SMILES: CCCN(CCC)CCc1ccc(OC2=CCN(C)CC2)cc1
TEST SYSTEM: SF-268
GROUP: 0 (no)
//
QUERY SMILES: O=C(C[C@@H]1NCCC[C@H]1O)Cn1cnc2cc(Br)c(Cl)cc2c1=O
TEST SYSTEM: SF-268
GROUP: 1 (yes)
//
QUERY SMILES: OCCN(CCO)c1ccc2c(-c3ccccc3)cc(N(CCO)CCO)nc2n1
TEST SYSTEM: SF-268
GROUP: 0 (no)

Okay, now this molecule:
Please state the recorded outcome for this molecule: Cn1c(=O)c2c(n(C)c1=O)n1c(=O)c3ccccc3nc1n2C 0 (no)
